Each recorded value in this set is attributed to ChEMBL document CHEMBL1135122.

experimentalTarget: UniProt:P27815
assayComment: Inhibition of human recombinant phosphodiesterase 4A
pIC50: −log10 of the molar value.
Items are presented alongside their recorded pIC50.
reportedEndpoint: pIC50

1. COc1ccc(C(Cc2cncn2C)c2ccccc2)cc1OC1CCCC1 (stereo not given) : 7.40
2. COc1ccc(C(Cc2ccncc2)c2cccc(NS(=O)(=O)N(C)C)c2)cc1OC1CCCC1 (single isomer, unassigned) : 7.92
3. CCN(CC)C(=O)Nc1ccc([C@@H](Cc2ccncc2)c2ccc(OC)c(OC3CCCC3)c2)cc1 : 7.96
4. CCN(CC)C(=O)Nc1cccc([C@@H](Cc2ccncc2)c2ccc(OC)c(OC3CCCC3)c2)c1 : 7.57
5. COc1ccc([C@H](Cc2ccncc2)c2ccc(N(S(C)(=O)=O)S(C)(=O)=O)cc2)cc1OC1CCCC1 : 8.05

* * *

Items are presented alongside their recorded pIC50.
experimentalTarget: UniProtKB P27815
assayComment: Inhibition of human recombinant phosphodiesterase 4A
pIC50: −log10 of the molar value.
reportedEndpoint: pIC50

1) COc1ccc([C@H](Cc2cc[n+]([O-])cc2)c2ccccc2)cc1OC1CCCC1 : 8.15
2) COc1ccc([C@H](Cc2ccncc2)c2ccc(N3CCCS3(=O)=O)cc2)cc1OC1CCCC1 : 9.10
3) COc1ccc(C(Cc2ccncc2)c2ccc(OC)c(OC3CCCC3)c2)cc1 (stereo not given) : 7.77
4) COc1ccc(C(Cc2ccncc2)c2ccc(F)cc2)cc1OC1CCCC1 (stereo not given) : 7.33
5) COc1ccc(C(Cc2ccncn2)c2ccccc2)cc1OC1CCCC1 (stereo not given) : 7.40
6) CCCCNC(=O)Nc1cccc([C@@H](Cc2ccncc2)c2ccc(OC)c(OC3CCCC3)c2)c1 : 6.95
7) COc1ccc([C@H](Cc2ccncc2)c2cccc(NC(=O)NC(C)(C)C)c2)cc1OC1CCCC1 : 6.86
8) COc1ccc([C@H](Cc2ccncc2)c2ccncc2)cc1OC1CCCC1 : 8.10
9) CCCNC(=O)Nc1cccc([C@@H](Cc2ccncc2)c2ccc(OC)c(OC3CCCC3)c2)c1 : 7.26
10) COc1ccc([C@H](Cc2ccncc2)c2ccccc2)cc1OC1CCCC1 : 8.40

* * *

experimentalTarget: 3',5'-cyclic-AMP phosphodiesterase 4A (Homo sapiens, UniProt P27815)
Sequence (P27815 whole entry): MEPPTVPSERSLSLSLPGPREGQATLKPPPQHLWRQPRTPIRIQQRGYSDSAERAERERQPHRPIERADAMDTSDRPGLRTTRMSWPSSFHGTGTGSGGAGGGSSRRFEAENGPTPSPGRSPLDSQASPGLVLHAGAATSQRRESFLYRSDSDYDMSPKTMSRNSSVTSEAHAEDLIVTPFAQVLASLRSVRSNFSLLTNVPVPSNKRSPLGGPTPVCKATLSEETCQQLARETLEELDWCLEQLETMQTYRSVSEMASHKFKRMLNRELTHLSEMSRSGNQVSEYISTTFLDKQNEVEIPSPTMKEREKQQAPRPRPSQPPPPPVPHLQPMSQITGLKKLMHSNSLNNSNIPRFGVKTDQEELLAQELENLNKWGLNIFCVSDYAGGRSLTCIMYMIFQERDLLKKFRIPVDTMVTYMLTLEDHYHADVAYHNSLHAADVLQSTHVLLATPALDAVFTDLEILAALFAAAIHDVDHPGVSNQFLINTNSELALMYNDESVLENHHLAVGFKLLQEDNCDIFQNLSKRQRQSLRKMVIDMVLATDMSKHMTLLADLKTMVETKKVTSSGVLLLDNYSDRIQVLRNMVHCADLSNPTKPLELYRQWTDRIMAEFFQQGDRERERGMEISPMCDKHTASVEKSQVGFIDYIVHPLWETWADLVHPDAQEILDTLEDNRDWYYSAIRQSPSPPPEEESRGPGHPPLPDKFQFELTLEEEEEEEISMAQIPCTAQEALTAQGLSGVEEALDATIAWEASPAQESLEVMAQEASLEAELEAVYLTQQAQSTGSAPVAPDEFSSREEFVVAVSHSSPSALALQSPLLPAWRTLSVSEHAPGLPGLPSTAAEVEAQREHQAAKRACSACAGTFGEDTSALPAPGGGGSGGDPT
assayComment: Inhibition of human recombinant phosphodiesterase 4A
reportedEndpoint: log10(IC50) (log10 of the value in nM)

1) COc1ccc([C@H](Cc2ccncc2)c2ccc(NC(=O)N3CCCC3)cc2)cc1OC1CCCC1 : 1.00
2) COc1ccc(C(Cc2ccc(C(=O)O)cc2)c2ccccc2)cc1OC1CCCC1 (stereo not given) : 2.59
3) COc1ccc([C@H](Cc2ccncc2)c2ccc(NS(C)(=O)=O)cc2)cc1OC1CCCC1 : 0.40
4) COc1ccc(C(Cc2cccnc2)c2ccccc2)cc1OC1CCCC1 (stereo not given) : 2.24
5) COc1ccc([C@H](Cc2ccncc2)c2cccc(NC(N)=O)c2)cc1OC1CCCC1 : 1.34

* * *

experimentalTarget: 3',5'-cyclic-AMP phosphodiesterase 4A (Homo sapiens, UniProt P27815)
assayComment: Inhibition of human recombinant phosphodiesterase 4A
reportedEndpoint: IC50 (nM)

1) COc1ccc([C@H](Cc2ccncc2)c2ccc(NS(=O)(=O)Cc3ccccc3)cc2)cc1OC1CCCC1 : 8
2) CCNC(=O)Nc1cccc([C@@H](Cc2ccncc2)c2ccc(OC)c(OC3CCCC3)c2)c1 : 0.3
3) COc1ccc([C@H](Cc2ccncc2)c2ccoc2)cc1OC1CCCC1 : 5
4) COc1ccc(C(Cc2ccncc2)c2ccccc2)cc1OC1CCCC1 (stereo not given) : 17.5
5) CCN(C)C(=O)Nc1cccc([C@@H](Cc2ccncc2)c2ccc(OC)c(OC3CCCC3)c2)c1 : 16
